Form field: pIC50 (one value per entry).
Biological target: PI3K-delta (Homo sapiens, UniProt O00329)
Construct: Millipore 14-604
Sequence (O00329 whole entry): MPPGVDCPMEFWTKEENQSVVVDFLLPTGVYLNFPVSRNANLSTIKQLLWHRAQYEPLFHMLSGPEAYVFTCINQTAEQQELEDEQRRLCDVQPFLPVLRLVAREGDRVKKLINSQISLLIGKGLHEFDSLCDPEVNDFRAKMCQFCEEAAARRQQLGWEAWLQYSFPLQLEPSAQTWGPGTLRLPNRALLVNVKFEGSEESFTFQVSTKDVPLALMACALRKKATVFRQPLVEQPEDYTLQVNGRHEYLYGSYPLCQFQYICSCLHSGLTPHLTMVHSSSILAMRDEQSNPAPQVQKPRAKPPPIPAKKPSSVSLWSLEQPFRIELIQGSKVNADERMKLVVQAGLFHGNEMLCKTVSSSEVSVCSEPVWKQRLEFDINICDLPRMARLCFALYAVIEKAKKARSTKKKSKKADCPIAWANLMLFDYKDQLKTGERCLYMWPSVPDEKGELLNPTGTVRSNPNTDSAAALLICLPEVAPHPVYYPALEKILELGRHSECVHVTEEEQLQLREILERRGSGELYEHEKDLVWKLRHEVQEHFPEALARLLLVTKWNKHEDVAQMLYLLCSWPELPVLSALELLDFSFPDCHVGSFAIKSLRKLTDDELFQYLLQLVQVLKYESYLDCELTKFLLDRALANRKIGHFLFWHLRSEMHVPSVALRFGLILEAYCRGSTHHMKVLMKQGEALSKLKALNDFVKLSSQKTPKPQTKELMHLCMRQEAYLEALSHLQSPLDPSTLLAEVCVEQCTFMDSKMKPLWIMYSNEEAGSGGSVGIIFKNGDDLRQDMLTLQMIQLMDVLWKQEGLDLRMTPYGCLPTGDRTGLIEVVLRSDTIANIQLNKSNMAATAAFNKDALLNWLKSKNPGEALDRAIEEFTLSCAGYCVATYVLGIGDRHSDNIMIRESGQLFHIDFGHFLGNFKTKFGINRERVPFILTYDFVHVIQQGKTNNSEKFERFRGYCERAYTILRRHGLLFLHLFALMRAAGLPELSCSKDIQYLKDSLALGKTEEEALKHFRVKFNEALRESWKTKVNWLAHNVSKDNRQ
Sequence (P27986 whole entry partner): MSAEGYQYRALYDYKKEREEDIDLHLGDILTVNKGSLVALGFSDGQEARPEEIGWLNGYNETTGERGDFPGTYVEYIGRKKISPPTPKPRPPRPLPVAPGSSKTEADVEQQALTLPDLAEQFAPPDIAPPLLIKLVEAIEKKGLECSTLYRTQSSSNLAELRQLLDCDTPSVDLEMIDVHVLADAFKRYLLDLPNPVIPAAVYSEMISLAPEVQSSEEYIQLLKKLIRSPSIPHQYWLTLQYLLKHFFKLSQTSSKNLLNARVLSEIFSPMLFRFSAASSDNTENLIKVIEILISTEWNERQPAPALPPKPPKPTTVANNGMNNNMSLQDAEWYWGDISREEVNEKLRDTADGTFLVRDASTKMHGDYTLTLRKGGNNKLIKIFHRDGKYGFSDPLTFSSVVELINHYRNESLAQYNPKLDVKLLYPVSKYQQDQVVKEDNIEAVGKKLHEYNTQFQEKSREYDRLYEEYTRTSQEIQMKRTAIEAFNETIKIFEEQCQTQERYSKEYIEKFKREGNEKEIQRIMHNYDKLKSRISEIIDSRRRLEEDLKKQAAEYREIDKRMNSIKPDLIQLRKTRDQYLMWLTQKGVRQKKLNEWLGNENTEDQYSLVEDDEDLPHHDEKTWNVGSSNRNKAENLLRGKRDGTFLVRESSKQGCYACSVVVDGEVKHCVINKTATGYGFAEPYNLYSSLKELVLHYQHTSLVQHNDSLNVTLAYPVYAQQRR
Test: HTRF PI3K biochemical assay, delta isoform
Conditions: form screened (neutral or TFA salt) given, read-out: PI3Kdelta IC50
Field pIC50 (float): negative decimal logarithm of the concentration in molar.

Compound | Endpoint Result
CCn1c(-c2cnc(C)nc2)nc2c(NC3CN(C(=O)C4CC4)CC3F)ncnc21 (single isomer, unassigned) [Compound 3-21] | 8.47
CCn1c(-c2cnc(C)nc2)nc2c(N[C@H]3CCN(C(=O)N4CC[C@@H](F)C4)C3)ncnc21 [Compound 12-12] | 8.54

query: Provide only the value of recorded pIC50 for CCC(=O)N1CC[C@H](Nc2ncnc3c2nc(-c2ccc(OC)c(C)c2)n3C)C1 [Compound 3-32]
result: 8.72

query: Provide only the value of recorded pIC50 for CCn1c(-c2cnc(C)nc2)nc2c(N[C@H]3C[C@H](C(=O)O)N(C(=O)OC(C)(C)C)C3)ncnc21 [Compound 1-18]
result: 8.70

query: Provide only the value of recorded pIC50 for CCC(=O)N1CC[C@H](Nc2ncnc3c2nc(-c2cnc(OC)c(C(F)(F)F)c2)n3C)C1 [Compound 3-7]
result: 8.66

query: Provide only the value of recorded pIC50 for CCn1c(-c2cnc(C)nc2)nc2c(N[C@H]3CCN(C(=O)[C@@H]4CCOC4)C3)ncnc21 [Compound 2-40]
result: 8.80

This collection of values is drawn from patent US9938281B2.
